Target: SARS-CoV-2 spike receptor-binding domain, Delta variant (amino acids 331-529), biotinylated (SARS-CoV-2, Delta, L452R | T478K, biotin (RBD expression vector co-expressed with BirA-Flag, 100 μM biotin added))
Experiment: BLI
Conditions: both partners purified
Metric name: kon

[[record]]
binder = "NIV-10 Fab (Fab, V domains shown) VH: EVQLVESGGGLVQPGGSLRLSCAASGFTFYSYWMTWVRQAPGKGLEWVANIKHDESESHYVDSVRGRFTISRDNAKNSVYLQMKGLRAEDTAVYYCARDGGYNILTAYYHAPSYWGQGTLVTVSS VL: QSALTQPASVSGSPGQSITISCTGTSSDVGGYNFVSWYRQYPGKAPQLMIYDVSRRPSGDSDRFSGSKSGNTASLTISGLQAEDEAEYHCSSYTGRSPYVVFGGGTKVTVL"
value_reported = "354000 M⁻¹ s⁻¹"

